- SYSTEM TESTED: ZF-CLIP (zif268-CLIP-tag fusion)
- ASSAY NOTES: fluorescence polarization
- CONDITION DETAILS: amino-C6-T (second T of TTTT loop); 40 mM Tris-HCl, 20 mM acetic acid, 12.5 mM MgCl2, 1 mM DTT, 1 uM ZnCl2, 100 nM calf thymus DNA, 0.02% Tween 20, pH 8.0, 25 C, with or without 200 mM NaCl
pKd: −log10 of the molar value.

- POLYMER SEQUENCE: "CGCGACGCCCACGCGCGTTTTCGCGCGTGGGCGTCGC [A488-ODN-ZF]"
  SYSTEM TESTED: "ZF-CLIP (zif268-CLIP-tag fusion)"
  pKd: 7.25
